assay_explanation: protein stability index of a GFP-peptide fusion (yeast GPS) (PSI 1-4); higher = more stable; sorted into four equal gates, so the index is relative within each strain
assay_conditions: pdr5∆
parameter: protein stability index
The answer should be written as a number, with no unit following it.

Example entries begin here.
{"sequence_data": "NNNNKSINKNNKEMHTD [SSN2]", "protein stability index": 2.99}
{"sequence_data": "KVLINDQLSTISMILRN [SWI1]", "protein stability index": 2.79}
{"sequence_data": "MSVERGIRWELISRLCP [RPT1]", "protein stability index": 2.17}
{"sequence_data": "IDSFFLYVLPSFNIPRL [YMR129W/POM152]", "protein stability index": 1.57}
{"sequence_data": "RVADEDANLNDLPETGF [IRR1]", "protein stability index": 3.22}
{"sequence_data": "FYQQVHKKDRLQYLPLY [SIR4]", "protein stability index": 1.77}

Continue with the next sequence.
Incoming: Consider the sequence MNIIQQQQQQNTNNNDT [GAL11] and give its measured protein stability index.
Outgoing: 2.63

====

Reported protein stability index values are given for each entry in this list.
assay_explanation: protein stability index of a GFP-peptide fusion (yeast GPS) (PSI 1-4); higher = more stable; sorted into four equal gates, so the index is relative within each strain
assay_conditions: pdr5∆
The answer should be written as a number, with no unit following it.

Example entries begin here.
{"sequence_data": "WEQLKITVVPVVAAAED [QCR6]", "protein stability index": 2.14}
{"sequence_data": "RNVGKTLVNKSTGLKNA [RPS1B]", "protein stability index": 2.72}

Incoming: Consider the sequence EVYTKTIEVLDEVITEG [POP7] and give its measured protein stability index.
Outgoing: 3.12

Incoming: Also ILVDSLTGNQLPTPTPT [SWI1] , if possible.
Outgoing: 2.76

Incoming: Also NFARQLLFNNDFPLLKV [RRP40] , if possible.
Outgoing: 2.02

Incoming: Also AIMNCADNSGARNLYII [RPL23A] , if possible.
Outgoing: 3.14

Incoming: Also TKFFDDAKSTPLRLRLY [RPN9] , if possible.
Outgoing: 3.02

====

assay_explanation: protein stability index of a GFP-peptide fusion (yeast GPS) (PSI 1-4); higher = more stable; sorted into four equal gates, so the index is relative within each strain
assay_conditions: ubr1∆
parameter: protein stability index
The answer should be written as a number, with no unit following it.

{"sequence_data": "SAAGNKAIPTFSFGKPF [YIL149C/MLP2]", "endpoint_result": 2.96}
{"sequence_data": "TEDILKEISTRVFNAKD [YCS4]", "endpoint_result": 3.29}
{"sequence_data": "ARQQVAQQLRNQQQQQQ [GAL11]", "endpoint_result": 2.92}

Incoming: Consider the sequence MAPLSLNFKDDKKYKGL [REC8] and give its measured protein stability index.
Outgoing: 2.47

Incoming: Also RAFQKQPHIFNNPKVKT [RPS11A] , if possible.
Outgoing: 2.21

Incoming: Also KLQENRTLLTEEIEPKL [SMC2] , if possible.
Outgoing: 3.19

Incoming: Also ISAKDMGQGLCNNINKG [BRR2] , if possible.
Outgoing: 3.26

Incoming: Also QVEYALEAIKQGSVTVG [PRE5] , if possible.
Outgoing: 3.09

Incoming: Also LQKVENQTIKEAKDAII [YIL149C/MLP2] , if possible.
Outgoing: 3.13

Incoming: Also STIEKDMKEYDSDKGSK [SMC2] , if possible.
Outgoing: 3.44
